# procedure summary: Peptide solubility by visual inspection; for visual inspection: key: ok: clear solution; +: very small precipitation only visible with a magnifier; ++: precipitation/turbid solution; +++: more precipitation/turbid solution
# Assay type: physicochemical
Where no end group is shown, it is not given here.
quantity: solubility, 1st round of solubility screening

- substance: "AGELELQFRRVKSKYPEGTK-OH [peptide 207]"
  result: "soluble"
- substance: "KEDFLGSLVKEIPPRLLYAK-OH [peptide 222]"
  result: "soluble"
- substance: "PANDKFTVFEAAFNNAIKAS-OH [compound 70]"
  result: "soluble"
- substance: "STGGAYESYKFIPALEAAVK-OH [compound 71]"
  result: "soluble"
- substance: "SMGDDHFWAVRGGGGESFGI-OH [peptide 226]"
  result: "soluble"
- substance: "DKYRTFVATFGAASNKAFAE-OH [peptide 231]"
  result: "soluble"
- substance: "YHFDLSGHAFGAMAKKGDEQ-OH [peptide 205]"
  result: "soluble"
- substance: "GDEQKLRSAGELELQFRRVK-OH [compound 206]"
  result: "soluble"
- substance: "WLDAKSTWYGKPTGAGPKDN-OH [peptide 201]"
  result: "soluble"
- substance: "GSDPKKLVLNIKYTRPGDSL-OH [peptide 217]"
  result: "soluble"
- substance: "WGAIWRIDTPDKLTGPFTVR-OH [peptide 211]"
  result: "soluble"
- substance: "TDDNEEPIAPYHFDLSGHAF-OH [peptide 204]"
  result: "soluble"
- substance: "VRYTTEGGTKTEAEDVIPEG-OH [peptide 212]"
  result: "soluble"

* * *

Measured Cross-reactivity score of individual entries
# System: grass pollen allergic donor derived TCL-03 lines
# procedure summary: Extended cross-reactivity study, proliferation on TCL03 DK1+DK2 (Study XR2), scoring
# Assay type: cell-based, human
# Parameters: scale not given here
# condition: homologue of peptide 205 (Phl p 1); Table 41
Where no end group is shown, it is not given here.
quantity: Cross-reactivity score

- substance: "YHFDLSGKAFGAMAKKGEED-OH [compound 371]"
  readout number: 2
- substance: "YHFDLAGTAFGAMAKKGEEE-OH [compound 375]"
  readout number: 7
- substance: "YHFDLSGHAFGSMAKKGEEE-OH [compound 373]"
  readout number: 6
- substance: "YHFDLSGHAFGSMAKKGEEQ-OH [compound 372]"
  readout number: 7
- substance: "YHFDLSGKAFGAMAKKGEEQ-OH [compound 374]"
  readout number: 3

* * *

# procedure summary: Peptide solubility by visual inspection; for visual inspection: key: ok: clear solution; +: very small precipitation only visible with a magnifier; ++: precipitation/turbid solution; +++: more precipitation/turbid solution
# Format: physicochemical
# condition: first solubility screening; TFA salts, 1-7 mg/mL solutions in DMSO
Where no end group is shown, it is not given here.

- substance: "TPDKLTGPFTVRYTTEGGTK-OH [compound 024]"
  Visual inspection: "++"
- substance: "GGASGYKDVDKPPFSGMTGS-OH [compound 006]"
  Visual inspection: "+"
- substance: "AEVELRQHGSEEWEPLTKKG-OH [compound 063]"
  Visual inspection: "+"
- substance: "VVAVDIKEKGKDKWIELKES-OH [compound 021]"
  Visual inspection: "++"

* * *

# procedure summary: Bio-stability in 25% human serum (T½, degradation pattern by UHPLC and MS)
# Format: in vitro ADME
# condition: male, 37° C.
Where no end group is shown, it is not given here.

- substance: "AYESYKFIPALEAAVKQAYA-OH [peptide 285]"
  unit tag: "h"
  half-life: 1.37

Measured values drawn from patent US20180207228A1 for this set.
